Target: JAK1 kinase (Homo sapiens)
Construct: purchased Invitrogen PV4744
Experiment: In vitro inhibitory activity on JAK1 kinase (ADP-Glo Kinase Assay)
Format: biochemical
Conditions: JAK1 kinase 4 nM, 1 mM ATP
recorded.endpoint: IC50

Which IC50 reading was recorded for the compound Cn1cc(Nc2ncc(C(F)(F)F)c(C3=CC4CCC(C3)N4C(=O)NCC(F)(F)F)n2)cn1 (stereo not shown) ? 300 to 1000 nM

Which IC50 reading was recorded for the compound Cn1cc(Nc2ncc(F)c(C3=CC4CCC(C3)N4C(=O)[C@@H]3CC3(F)F)n2)cn1 (stereo partly shown) ? < 100 nM

Which IC50 reading was recorded for the compound Cn1cc(Nc2ncc(F)c(C3=C[C@@H]4CC[C@H](C3)N4C(=O)NCC(F)(F)F)n2)cn1 (single isomer, unassigned) ? < 100 nM

###

As shown below, each of these compounds has a reported IC50 value.
Biological target: JAK1 kinase (Homo sapiens)
Construct: purchased Invitrogen PV4744
Test: In vitro inhibitory activity on JAK1 kinase (ADP-Glo Kinase Assay)
Type: biochemical
Conditions: JAK1 kinase 4 nM, 1 mM ATP

compound	IC50
Cn1cc(Nc2nccc(C3=CC4CCC(C3)N4C(=O)c3cc(C#N)cs3)n2)cn1 (centres unmarked) [Compound 18]	> 1000 nM
Cn1cc(Nc2nccc(C3=CC4CCC(C3)N4C3(CC#N)CN(C(=O)[C@@H]4CC4(F)F)C3)n2)cn1 (some centres unmarked) [Compound 85]	> 1000 nM
Cc1cnc(Nc2cnn(C)c2Cl)nc1C1=CC2CCC(C1)N2C(=O)NCC(F)(F)F (centres unmarked) [Compound 32]	100 to 300 nM

Which IC50 reading was recorded for the compound Cn1cc(Nc2nccc(C3=CC4CCC(C3)N4C(=O)c3ccc(C(F)(F)F)cc3)n2)cn1 (centres unmarked) [Compound 16] ? > 1000 nM

Which IC50 reading was recorded for the compound Cn1cc(Nc2nccc(C3=C[C@@H]4CC[C@H](C3)N4C(=O)NCC(F)(F)F)n2)cn1 [Compound 3-a] ? < 100 nM

Which IC50 reading was recorded for the compound Cn1cc(Nc2ncc(F)c(C3=CC4CCC(C3)N4C(=O)NCC#N)n2)cn1 (centres unmarked) [Compound 11] ? < 100 nM

Which IC50 reading was recorded for the compound CC(C(=O)N1C2C=C(c3ccnc(Nc4cnn(C)c4)n3)CC1CC2)C(F)(F)F (centres unmarked) [Compound 67] ? 300 to 1000 nM

Which IC50 reading was recorded for the compound Cn1cc(Nc2nccc(C3=CC4CCC(C3)N4C(=O)C34CC(F)(C3)C4)n2)cn1 (centres unmarked) [Compound 74] ? > 1000 nM

###

As shown below, each of these compounds has a reported IC50 value.
Biological target: JAK1 kinase (Homo sapiens, UniProt P23458)
Construct: purchased Invitrogen PV4744
Sequence (P23458 866-1154 limits assumed): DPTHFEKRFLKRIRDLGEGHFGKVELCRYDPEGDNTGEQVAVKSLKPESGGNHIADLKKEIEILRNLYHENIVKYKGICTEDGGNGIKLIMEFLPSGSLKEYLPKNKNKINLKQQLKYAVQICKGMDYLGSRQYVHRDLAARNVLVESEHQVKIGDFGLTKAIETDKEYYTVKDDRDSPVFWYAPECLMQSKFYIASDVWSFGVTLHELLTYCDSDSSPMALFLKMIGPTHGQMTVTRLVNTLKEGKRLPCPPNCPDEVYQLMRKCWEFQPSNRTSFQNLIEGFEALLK
Experiment: In vitro inhibitory activity on JAK1 kinase (ADP-Glo Kinase Assay)
Type: biochemical
Conditions: JAK1 kinase 4 nM, 1 mM ATP

Check out these entries, answers already filled in.
compound	target.desc	IC50
Cn1cc(Nc2nccc(C3=CC4CCC(C3)N4C(=O)NCC(F)F)n2)cn1 (stereo not shown)	JAK1 kinase (Homo sapiens, UniProt P23458)	< 100 nM
Cn1cc(Nc2nccc(C3=CC4CCC(C3)N4C(=O)[C@@H]3C[C@H]3C#N)n2)cn1 (stereo partly shown)	JAK1 kinase (Homo sapiens, UniProt P23458)	100 to 300 nM
Cc1cnc(Nc2cnn(CC(C)(C)O)c2)nc1C1=CC2CCC(C1)N2C(=O)NCC(F)(F)F (stereo not shown)	JAK1 kinase (Homo sapiens, UniProt P23458)	< 100 nM

Which IC50 reading was recorded for the compound Cn1cc(Nc2nccc(C3=CC4CCC(C3)N4C(=O)C34CC(C#N)(C3)C4)n2)cn1 (stereo not shown) ? > 1000 nM

Which IC50 reading was recorded for the compound Cc1cnc(Nc2cnn(C3COC3)c2)nc1C1=CC2CCC(C1)N2C(=O)NCC(F)(F)F (stereo not shown) ? < 100 nM

Which IC50 reading was recorded for the compound O=C(NCC(F)(F)F)N1C2C=C(c3nc(Nc4cnn(C(F)F)c4)ncc3F)CC1CC2 (stereo not shown) ? < 100 nM

Which IC50 reading was recorded for the compound Cn1cc(Nc2nccc(C3=CC4CCC(C3)N4C(=O)C3(C#N)CC3)n2)cn1 (stereo not shown) ? 300 to 1000 nM

Which IC50 reading was recorded for the compound Cn1cc(Nc2nccc(C3=CC4CCC(C3)N4C(=O)C3(C(F)(F)F)CC3)n2)cn1 (stereo not shown) ? > 1000 nM

###

As shown below, each of these molecules has a reported IC50 value.
Target: JAK1 kinase (Homo sapiens, UniProt P23458)
Construct: purchased Invitrogen PV4744
Test: In vitro inhibitory activity on JAK1 kinase (ADP-Glo Kinase Assay)
Format: biochemical
Conditions: JAK1 kinase 4 nM, 1 mM ATP

molecule	target.desc	recorded.endpoint	experimental.result
Cn1cc(Nc2nccc(C3=CC4CCC(C3)N4C(=O)C34CC(C3)C4)n2)cn1 (centres unmarked) [Compound 72]	JAK1 kinase (Homo sapiens, UniProt P23458)	IC50	> 1000 nM
Cn1cc(Nc2nccc(C3=CC4CCC(C3)N4C(=O)C(=O)NCC#N)n2)cn1 (centres unmarked) [Compound 83]	JAK1 kinase (Homo sapiens, UniProt P23458)	IC50	> 1000 nM
Cn1cc(Nc2nccc(C3=CC4CCC(C3)N4C(=O)C3(C)COC3)n2)cn1 (centres unmarked) [Compound 13]	JAK1 kinase (Homo sapiens, UniProt P23458)	IC50	> 1000 nM

Which IC50 reading was recorded for the molecule CC(C)n1cc(Nc2nccc(C3=CC4CCC(C3)N4C(=O)[C@@H]3CC3(F)F)n2)cn1 (some centres unmarked) [Compound 46] ? 100 to 300 nM

Which IC50 reading was recorded for the molecule CC(C#N)C(=O)N1C2C=C(c3ccnc(Nc4cnn(C)c4)n3)CC1CC2 (centres unmarked) [Compound 62] ? 100 to 300 nM

Which IC50 reading was recorded for the molecule Cn1cc(Nc2nccc(C3=CC4CCC(C3)N4C(=O)C3CCC(F)(F)C3)n2)cn1 (centres unmarked) [Compound 70] ? < 100 nM

Which IC50 reading was recorded for the molecule Cn1cc(Nc2nccc(C3=CC4CCC(C3)N4C(=O)C3CCOCC3)n2)cn1 (centres unmarked) [Compound 78] ? > 1000 nM

Which IC50 reading was recorded for the molecule Cn1cc(Nc2nccc(C3=CC4CCC(C3)N4C3(CC#N)CN(C(=O)NCC(F)(F)F)C3)n2)cn1 (centres unmarked) [Compound 86] ? > 1000 nM

###

Assay: Pharmacokinetic study in rats after oral administration
Format: in vivo, SD rats
Conditions: rat; male SD rats, oral 5 mg/kg, plasma
recorded.endpoint: Cmax

Which Cmax reading was recorded for the compound Cn1cc(Nc2nccc(C3=C[C@H]4CC[C@@H](C3)N4C(=O)[C@@H]3CC3(F)F)n2)cn1 [Compound 1-b] ? > 900 ng/mL

Which Cmax reading was recorded for the compound Cn1cc(Nc2nccc(C3=CC4CCC(C3)N4C(=O)[C@@H]3CC3(F)F)n2)cn1 (stereo partly shown) [Compound 1] ? > 900 ng/mL

Which Cmax reading was recorded for the compound Cn1cc(Nc2nccc(C3=C[C@@H]4CC[C@H](C3)N4C(=O)[C@@H]3CC3(F)F)n2)cn1 (single isomer, unassigned) [Compound 1-a] ? 600 to 900 ng/mL

Which Cmax reading was recorded for the compound Cn1cc(Nc2nccc(C3=CC4CCC(C3)N4C(=O)NCC(F)(F)F)n2)cn1 (stereo not shown) [Compound 3] ? 600 to 900 ng/mL

###

Target: JAK1 kinase (Homo sapiens, UniProt P23458)
Construct: purchased Invitrogen PV4744
Test: In vitro inhibitory activity on JAK1 kinase (ADP-Glo Kinase Assay)
Type: biochemical
Conditions: JAK1 kinase 4 nM, 1 mM ATP
Text: Test Example 1: Determination of In Vitro Inhibitory Activity of the Compounds of the Present Invention on JAK1 Kinase Experimental materials: JAK1 kinase (Invitrogen, PV4744), ATP (Promega, V915B), ADP-Glo Kinase Assay (Promega, V9101), IRS1 (Signalchem, 140-58-1000). […] RLU (Relative luminescence unit) signal was read by using an Envision multifunctional plate reader. […]
recorded.endpoint: IC50

molecule	IC50
Cn1cc(Nc2nccc(C3=CC4CCC(C3)N4C(=O)NCC#N)n2)cn1 (centres unmarked) [Compound 2]	< 100 nM
Cn1cc(Nc2nccc(C3=CC4CCC(C3)N4C(=O)NC3CC3(F)F)n2)cn1 (centres unmarked) [Compound 14]	100 to 300 nM
Cn1cc(Nc2ncc(F)c(C3=CC4CCC(C3)N4C(=O)NCC(F)(F)F)n2)cn1 (centres unmarked) [Compound 12]	< 100 nM
Cn1cc(Nc2nccc(C3=CC4CCC(C3)N4C(=O)NC3COC3)n2)cn1 (centres unmarked) [Compound 15]	300 to 1000 nM
Cn1cc(Nc2nccc(C3=CC4CCC(C3)N4C(=O)C(C)(C)C(F)(F)F)n2)cn1 (centres unmarked) [Compound 68]	300 to 1000 nM
Cn1cc(Nc2nccc(C3=CC4CCC(C3)N4C(=O)N3CCC(C(F)(F)F)C3)n2)cn1 (centres unmarked) [Compound 9]	> 1000 nM
Cn1cc(Nc2nccc(C3=CC4CCC(C3)N4C(=O)NC3(C(F)(F)F)CC3)n2)cn1 (centres unmarked) [Compound 33]	< 100 nM
Cc1cnc(Nc2cn(C)nc2C)nc1C1=CC2CCC(C1)N2C(=O)NCC(F)(F)F (centres unmarked) [Compound 26]	< 100 nM
Cn1cc(Nc2nccc(C3=CC4CCC(C3)N4C(=O)C3CC3C(F)(F)F)n2)cn1 (centres unmarked) [Compound 49]	< 100 nM
Cn1cc(Nc2nccc(C3=CC4CCC(C3)N4C(=O)NCCC(F)(F)F)n2)cn1 (centres unmarked) [Compound 57]	300 to 1000 nM

GET /values?readout=IC50&system=JAK1 kinase (Homo sapiens, UniProt P23458)&item= Cc1cnc(Nc2cn(C)nc2C)nc1C1=C[C@@H]2CC[C@H](C1)N2C(=O)NCC(F)(F)F [Compound 26-a] > 1000 nM

GET /values?readout=IC50&system=JAK1 kinase (Homo sapiens, UniProt P23458)&item= Cn1cc(Nc2nccc(C3=CC4CCC(C3)N4C(=O)C3CC3(F)Cl)n2)cn1 (centres unmarked) [Compound 50] 100 to 300 nM

GET /values?readout=IC50&system=JAK1 kinase (Homo sapiens, UniProt P23458)&item= Cn1cc(Nc2nccc(C3=CC4CCC(C3)N4C(=O)CC(F)(F)F)n2)cn1 (centres unmarked) [Compound 65] 100 to 300 nM

GET /values?readout=IC50&system=JAK1 kinase (Homo sapiens, UniProt P23458)&item= Cn1cc(Nc2nccc(C3=CC4CCC(C3)N4C(=O)C3CC(CO)C3)n2)cn1 (centres unmarked) [Compound 81] > 1000 nM

GET /values?readout=IC50&system=JAK1 kinase (Homo sapiens, UniProt P23458)&item= NC(=O)C1(n2cc(Nc3nccc(C4=CC5CCC(C4)N5C(=O)[C@@H]4CC4(F)F)n3)cn2)CC1 (some centres unmarked) [Compound 39] > 1000 nM

GET /values?readout=IC50&system=JAK1 kinase (Homo sapiens, UniProt P23458)&item= NC(=O)Cn1cc(Nc2nccc(C3=CC4CCC(C3)N4C(=O)[C@@H]3CC3(F)F)n2)cn1 (some centres unmarked) [Compound 38] < 100 nM

GET /values?readout=IC50&system=JAK1 kinase (Homo sapiens, UniProt P23458)&item= Cn1cc(Nc2nccc(C3=CC4CCC(C3)N4C(=O)N3CC[C@@H](C#N)C3)n2)cn1 (some centres unmarked) [Compound 7] > 1000 nM
